Each entry below carries its measured Kd, system: CAIV (Homo sapiens).
Sequence (P22748 19-312): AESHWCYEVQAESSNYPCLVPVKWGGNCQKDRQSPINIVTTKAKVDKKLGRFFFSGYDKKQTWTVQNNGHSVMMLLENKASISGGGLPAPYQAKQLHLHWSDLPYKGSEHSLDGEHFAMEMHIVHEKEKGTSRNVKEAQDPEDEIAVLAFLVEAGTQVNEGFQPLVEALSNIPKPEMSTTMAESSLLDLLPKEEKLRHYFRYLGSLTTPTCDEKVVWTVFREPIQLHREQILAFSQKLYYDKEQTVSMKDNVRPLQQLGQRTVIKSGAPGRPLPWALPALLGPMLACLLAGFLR
Note: unit nM is implicit; provide only the numeric part.

Cc1csc(N(CCC(=O)NN)c2ccc(S(N)(=O)=O)cc2)n1 :: 1500
CNC(=S)NNC(=O)CC(CNc1ccc(S(N)(=O)=O)cc1)C(=O)NNC(=S)NC (stereo not drawn) [Compound 22a] :: 6700
CCOC(=O)c1sc(N(CCC(=O)O)c2ccc(S(N)(=O)=O)cc2)nc1C :: 6700

Value wanted: Kd (CAIV (Homo sapiens)) of entry Cc1ccc(C)n1NC(=O)CC(CNc1ccc(S(N)(=O)=O)cc1Cl)C(=O)Nn1c(C)ccc1C (stereo not drawn) [Compound 19b]
1800

Provide the documented Kd with CAIV (Homo sapiens) as the system for CNC(=S)NNC(=O)CC(CNc1ccc(S(N)(=O)=O)cc1Cl)C(=O)NNC(=S)NC (stereo not drawn) [Compound 22b]
2000

Query Kd on CAIV (Homo sapiens) for NS(=O)(=O)c1ccc(NCC(CC(=O)NN=Cc2ccc(C(=O)O)cc2)C(=O)NN=Cc2ccc(C(=O)O)cc2)cc1 (stereo not drawn) [Compound 18a]
33000

Find the measured Kd: item COC(=O)CCN(c1ccc(S(N)(=O)=O)cc1)c1nc(C)cs1 , target or system CAIV (Homo sapiens).
1100

Test system CAIV (Homo sapiens); read-out Kd; what value for CCOC(=O)c1sc(N(CCC(=O)OC)c2ccc(S(N)(=O)=O)cc2)nc1C ?;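 also: recombinant human enzyme, thermal denaturation followed by ANS fluorescence, melting temperature versus ligand concentration fitted for Kd_obs, intrinsic value corrected for deprotonated sulfonamide and Zn-bound water fractions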
2000

---

- study target: CAIX (Homo sapiens, UniProt Q16790)
- Construct: made in house
- test: biochemical
- Format: binding
- conditions used: 37 °C; calculated (Equation 5)
measured metric: Intrinsic Gibbs energy change (ΔGint), CAIX (kcal/mol)
Reply with just the number (in kcal/mol).

NS(=O)(=O)c1ccc(N(CCC(=O)O)c2nc(-c3ccc(Cl)cc3)c(Cl)s2)cc1 :: -16.1
CCOC(=O)c1sc(N(CCC(=O)OC)c2ccc(S(N)(=O)=O)cc2)nc1C :: -14.1
Cc1csc(N(CCC(=O)NN)c2ccc(S(N)(=O)=O)cc2)n1 :: -15.5
CCOC(=O)c1sc(N(CCC(=O)O)c2ccc(S(N)(=O)=O)cc2)nc1C :: -14.3
COC(=O)CCN(c1ccc(S(N)(=O)=O)cc1)c1nc(C)cs1 :: -15.8
Cc1csc(N(CCC(=O)O)c2ccc(S(N)(=O)=O)cc2)n1 :: -16

Returns the measured Intrinsic Gibbs energy change (ΔGint), CAIX for the input molecule. Input: CCOC(=O)c1sc(N(CCC(=O)NN)c2ccc(S(N)(=O)=O)cc2)nc1C
-14

---

As shown below, each of these compounds has a reported Intrinsic Gibbs energy change (ΔGint), CAI value.
- study target: CAI (Homo sapiens, UniProt P00915)
- Construct: made in house; host or cells: E. coli
- Sequence (P00915 whole entry): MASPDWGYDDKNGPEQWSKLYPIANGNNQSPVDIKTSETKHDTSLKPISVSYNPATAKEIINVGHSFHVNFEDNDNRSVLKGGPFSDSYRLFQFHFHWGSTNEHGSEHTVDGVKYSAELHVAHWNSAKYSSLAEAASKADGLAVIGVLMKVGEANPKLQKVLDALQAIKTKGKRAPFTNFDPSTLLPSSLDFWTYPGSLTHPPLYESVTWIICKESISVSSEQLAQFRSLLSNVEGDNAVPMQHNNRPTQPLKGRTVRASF
- test: biochemical
- Assay type: binding
- conditions used: 37 °C; calculated (Equation 5)
Write down the numeric answer in kcal/mol and omit the unit.

Examples with answers:
Cc1csc(N(CCC(=O)NN)c2ccc(S(N)(=O)=O)cc2)n1 :: -14.4
CCOC(=O)c1sc(N(CCC(=O)O)c2ccc(S(N)(=O)=O)cc2)nc1C :: -12.5

Moving on to the next compound.
Looking for the measured Intrinsic Gibbs energy change (ΔGint), CAI of COC(=O)CCN(c1ccc(S(N)(=O)=O)cc1)c1nc(C)cs1 , can you help?
-15

---

- study target: CAXIV (Homo sapiens)
- Construct: made in house; host or cells: E. coli
- Sequence (Q9ULX7 16-337): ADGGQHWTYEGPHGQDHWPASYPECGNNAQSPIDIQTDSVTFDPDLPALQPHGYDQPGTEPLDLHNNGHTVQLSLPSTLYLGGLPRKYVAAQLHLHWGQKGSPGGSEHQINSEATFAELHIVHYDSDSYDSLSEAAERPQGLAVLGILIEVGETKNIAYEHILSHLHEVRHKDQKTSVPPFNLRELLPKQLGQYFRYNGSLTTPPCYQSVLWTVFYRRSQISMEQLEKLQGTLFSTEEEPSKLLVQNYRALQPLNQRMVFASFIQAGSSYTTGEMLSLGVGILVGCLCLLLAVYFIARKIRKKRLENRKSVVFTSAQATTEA
- test: Fluorescent thermal shift assay (FTSA), CAXIV;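 also: recombinant human CA XIV from E. coli, ANS-based thermal shift: Kd_obs fitted from melting temperature versus ligand concentration, ΔGint from Kd_obs corrected for deprotonated sulfonamide and Zn-water fractions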
- Format: binding
- conditions used: FTSA, pH 7.0, 37 °C; read-out: Observed Dissociation Constant (Kd_obs), CAXIV
Listed here are compounds together with their documented pKd.
When answering, recall that pKd equals minus log10 of the concentration in mol/L, and write that number alone.

Find pKd (CAXIV (Homo sapiens)) for the entry Cc1csc(N(CCC(=O)NN)c2ccc(S(N)(=O)=O)cc2)n1
6.89

---

- study target: CAXIII (Homo sapiens, UniProt Q8N1Q1)
- Sequence (Q8N1Q1 whole entry): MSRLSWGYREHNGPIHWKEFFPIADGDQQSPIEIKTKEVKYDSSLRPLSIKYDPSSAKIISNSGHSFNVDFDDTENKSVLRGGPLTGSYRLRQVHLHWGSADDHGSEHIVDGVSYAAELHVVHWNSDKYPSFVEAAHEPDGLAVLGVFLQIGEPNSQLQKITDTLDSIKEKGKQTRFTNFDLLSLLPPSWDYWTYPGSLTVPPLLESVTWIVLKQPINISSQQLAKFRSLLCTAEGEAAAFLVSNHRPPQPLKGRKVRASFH
- test: biochemical
- conditions used: Observed Dissociation Constant (Kd_obs), FTSA, pH 7.0, 37 °C
measured metric: log10 Kd (log10 of the value in µM)
# values: log10(Kd), units µM

Need log10 Kd, item CC(C)=NNC(=O)CC(CNc1ccc(S(N)(=O)=O)cc1)C(=O)NN=C(C)C (centres unmarked)
2.00

Return reported log10 Kd; argument: NS(=O)(=O)c1ccc(NCC(CC(=O)NN=Cc2cccc(Cl)c2)C(=O)NN=Cc2cccc(Cl)c2)c(Cl)c1 (centres unmarked) [Compound 11b]
-0.48

Which log10 Kd is listed for CC(C)=NNC(=O)CC(CNc1ccc(S(N)(=O)=O)cc1Cl)C(=O)NN=C(C)C (centres unmarked) ?
0.83

Any idea what log10 Kd was measured for COc1ccc(C=NNC(=O)CC(CNc2ccc(S(N)(=O)=O)cc2Cl)C(=O)NN=Cc2ccc(OC)cc2)cc1 (centres unmarked) [Compound 14b] ?
-1.18

Give its log10 Kd value. Item: NS(=O)(=O)c1ccc(NCC(CC(=O)NN=Cc2cccc(O)c2)C(=O)NN=Cc2cccc(O)c2)cc1 (centres unmarked)
0.70

# query: log10 Kd of entry CCC(C)=NN1C(=O)CC(CNc2ccc(S(N)(=O)=O)cc2)C1=O (centres unmarked)
1.30

Reported log10 Kd for CC(=NNC(=O)CC(CNc1ccc(S(N)(=O)=O)cc1Cl)C(=O)NN=C(C)c1ccccc1)c1ccccc1 (centres unmarked) : what is it?
-0.40

Name the reported log10 Kd value associated with the compound Cc1csc(N(CCC(=O)NN)c2ccc(S(N)(=O)=O)cc2)n1
0.23

---

- study target: CAII (Homo sapiens, UniProt P00918)
- Construct: made in house; host or cells: E. coli
- test: Isothermal titration calorimetry (ITC), CAII
- Format: binding
- conditions used: pH 7.0, 37 °C, read-out: Observed Dissociation Constant (Kd_obs), CAII, ITC data in brackets
In this section we review reported pKd values for a set of compounds.
// pKd is dimensionless: -log10 of concentration (M)

Which pKd is listed for COC(=O)CCN(c1ccc(S(N)(=O)=O)cc1)c1nc(C)cs1 ?
7.23

Look up pKd for this compound: CCOC(=O)c1sc(N(CCC(=O)O)c2ccc(S(N)(=O)=O)cc2)nc1C
6.07

---

- study target: CAXII (Homo sapiens, UniProt O43570)
- Construct: made in house; host or cells: E. coli
- Sequence (O43570 25-354): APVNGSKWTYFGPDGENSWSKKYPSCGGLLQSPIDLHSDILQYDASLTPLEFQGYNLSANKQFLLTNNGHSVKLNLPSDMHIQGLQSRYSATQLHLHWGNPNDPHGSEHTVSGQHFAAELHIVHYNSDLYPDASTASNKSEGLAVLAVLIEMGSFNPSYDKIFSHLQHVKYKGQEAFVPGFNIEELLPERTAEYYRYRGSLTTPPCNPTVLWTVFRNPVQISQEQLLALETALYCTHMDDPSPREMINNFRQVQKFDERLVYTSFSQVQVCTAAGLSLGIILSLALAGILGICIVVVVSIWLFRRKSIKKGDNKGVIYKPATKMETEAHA
- test: biochemical
- Format: binding
- conditions used: 37 °C; calculated (Equation 5)
Measured Intrinsic Gibbs energy change (ΔGint), CAXII, listed per entry.
Hi! Could you send only the number? It should be in kcal/mol, unit omitted.

Answered cases to consult:
COC(=O)CCN(c1ccc(S(N)(=O)=O)cc1)c1nc(C)cs1 :: -14.3
CCOC(=O)c1sc(N(CCC(=O)OC)c2ccc(S(N)(=O)=O)cc2)nc1C :: -11.7

The record that follows has no Intrinsic Gibbs energy change (ΔGint), CAXII shown yet.
Please look up its Intrinsic Gibbs energy change (ΔGint), CAXII: Cc1csc(N(CCC(=O)O)c2ccc(S(N)(=O)=O)cc2)n1
-15

---

- study target: CAXII (Homo sapiens, UniProt O43570)
- Construct: made in house; host or cells: E. coli
- test: biochemical
- Format: binding
- conditions used: 37 °C; calculated (Equation 5)
measured metric: Intrinsic Gibbs energy change (ΔGint), CAXII (kJ/mol)
Give the value, in units of kJ/mol, as a plain number.

Here is how some compounds turned out for Intrinsic Gibbs energy change (ΔGint), CAXII.
NS(=O)(=O)c1ccc(N(CCC(=O)O)c2nc(-c3ccc(Cl)cc3)c(Cl)s2)cc1 :: -62.4
Cc1csc(N(CCC(=O)NN)c2ccc(S(N)(=O)=O)cc2)n1 :: -58.1
CCOC(=O)c1sc(N(CCC(=O)NN)c2ccc(S(N)(=O)=O)cc2)nc1C :: -48.0

Now look at this entry.
Given the entry CCOC(=O)c1sc(N(CCC(=O)O)c2ccc(S(N)(=O)=O)cc2)nc1C , what Intrinsic Gibbs energy change (ΔGint), CAXII was observed with CAXII (Homo sapiens, UniProt O43570)?
-52.9

---

- study target: CAIX (Homo sapiens, UniProt Q16790)
- Construct: made in house
- test: biochemical
- Assay type: binding
- conditions used: FTSA, pH 7.0, 37 °C; read-out: Observed Dissociation Constant (Kd_obs), CAIX
// values below are reported pKd
FYI, pKd means -log10 of a concentration in mol per litre.

Observe how each entry below is paired with its result.
NS(=O)(=O)c1ccc(NCC(CC(=O)NN=Cc2ccc(Cl)cc2)C(=O)NN=Cc2ccc(Cl)cc2)c(Cl)c1 (stereo not drawn) [Compound 12b] :: 6.17
NS(=O)(=O)c1ccc(NCC(CC(=O)NN=Cc2ccc(C(=O)O)cc2)C(=O)NN=Cc2ccc(C(=O)O)cc2)cc1 (stereo not drawn) [Compound 18a] :: 5.85
COc1ccc(C=NNC(=O)CC(CNc2ccc(S(N)(=O)=O)cc2)C(=O)NN=Cc2ccc(OC)cc2)cc1 (stereo not drawn) [Compound 14a] :: 5.85

Bench note: what pKd did COC(=O)CCN(c1ccc(S(N)(=O)=O)cc1)c1nc(C)cs1 show?
7.48

Returns the measured pKd for the input compound. Input: Cc1ccc(C)n1NC(=O)CC(CNc1ccc(S(N)(=O)=O)cc1Cl)C(=O)Nn1c(C)ccc1C (stereo not drawn) [Compound 19b]
7.25

Quick one: pKd of NS(=O)(=O)c1ccc(NCC(CC(=O)NN=Cc2ccccc2O)C(=O)NN=Cc2ccccc2O)c(Cl)c1 (stereo not drawn) ?
7.17

Given NS(=O)(=O)c1ccc(NCC(CC(=O)NN=Cc2ccc(O)cc2)C(=O)NN=Cc2ccc(O)cc2)cc1 (stereo not drawn) , state its recorded pKd.
6.30

What does the data say about its pKd? Entry: CNC(=S)NNC(=O)CC(CNc1ccc(S(N)(=O)=O)cc1Cl)C(=O)NNC(=S)NC (stereo not drawn) [Compound 22b]
7.00

I would be grateful if you could share the reported pKd for Cn1c(CC(CNc2ccc(S(N)(=O)=O)cc2)c2n[nH]c(=S)n2C)n[nH]c1=S (stereo not drawn) [Compound 24a] .
6.04

// returns reported pKd for input NS(=O)(=O)c1ccc(NCC(CC(=O)NNC(=S)Nc2ccccc2)C(=O)NNC(=S)Nc2ccccc2)cc1 (stereo not drawn) [Compound 23a]
6.89

Give the measured pKd of CCOC(=O)c1sc(N(CCC(=O)NN)c2ccc(S(N)(=O)=O)cc2)nc1C .
6.20

I'd like to know its pKd. The compound in question is NS(=O)(=O)c1ccc(NCC(CC(=O)NN=Cc2cccc(Cl)c2)C(=O)NN=Cc2cccc(Cl)c2)cc1 (stereo not drawn) [Compound 11a]
6.00

pKd for COc1ccc(C=NNC(=O)CC(CNc2ccc(S(N)(=O)=O)cc2Cl)C(=O)NN=Cc2ccc(OC)cc2)cc1 (stereo not drawn) [Compound 14b] ?
6.54

What value of pKd has been reported for the following compound? CC(C)=NNC(=O)CC(CNc1ccc(S(N)(=O)=O)cc1)C(=O)NN=C(C)C (stereo not drawn)
5.17

Bench note: what pKd did CCC(C)=NN1C(=O)CC(CNc2ccc(S(N)(=O)=O)cc2)C1=O (stereo not drawn) show?
5.70
